target: UniProt:O70127; assay: Inhibition of Sprague-Dawley rat Bsep expressed in plasma membrane vesicles of Sf21 cells assessed as inhibition of ATP-dependent [3H]taurocholate uptake
Sequence (O70127 whole entry): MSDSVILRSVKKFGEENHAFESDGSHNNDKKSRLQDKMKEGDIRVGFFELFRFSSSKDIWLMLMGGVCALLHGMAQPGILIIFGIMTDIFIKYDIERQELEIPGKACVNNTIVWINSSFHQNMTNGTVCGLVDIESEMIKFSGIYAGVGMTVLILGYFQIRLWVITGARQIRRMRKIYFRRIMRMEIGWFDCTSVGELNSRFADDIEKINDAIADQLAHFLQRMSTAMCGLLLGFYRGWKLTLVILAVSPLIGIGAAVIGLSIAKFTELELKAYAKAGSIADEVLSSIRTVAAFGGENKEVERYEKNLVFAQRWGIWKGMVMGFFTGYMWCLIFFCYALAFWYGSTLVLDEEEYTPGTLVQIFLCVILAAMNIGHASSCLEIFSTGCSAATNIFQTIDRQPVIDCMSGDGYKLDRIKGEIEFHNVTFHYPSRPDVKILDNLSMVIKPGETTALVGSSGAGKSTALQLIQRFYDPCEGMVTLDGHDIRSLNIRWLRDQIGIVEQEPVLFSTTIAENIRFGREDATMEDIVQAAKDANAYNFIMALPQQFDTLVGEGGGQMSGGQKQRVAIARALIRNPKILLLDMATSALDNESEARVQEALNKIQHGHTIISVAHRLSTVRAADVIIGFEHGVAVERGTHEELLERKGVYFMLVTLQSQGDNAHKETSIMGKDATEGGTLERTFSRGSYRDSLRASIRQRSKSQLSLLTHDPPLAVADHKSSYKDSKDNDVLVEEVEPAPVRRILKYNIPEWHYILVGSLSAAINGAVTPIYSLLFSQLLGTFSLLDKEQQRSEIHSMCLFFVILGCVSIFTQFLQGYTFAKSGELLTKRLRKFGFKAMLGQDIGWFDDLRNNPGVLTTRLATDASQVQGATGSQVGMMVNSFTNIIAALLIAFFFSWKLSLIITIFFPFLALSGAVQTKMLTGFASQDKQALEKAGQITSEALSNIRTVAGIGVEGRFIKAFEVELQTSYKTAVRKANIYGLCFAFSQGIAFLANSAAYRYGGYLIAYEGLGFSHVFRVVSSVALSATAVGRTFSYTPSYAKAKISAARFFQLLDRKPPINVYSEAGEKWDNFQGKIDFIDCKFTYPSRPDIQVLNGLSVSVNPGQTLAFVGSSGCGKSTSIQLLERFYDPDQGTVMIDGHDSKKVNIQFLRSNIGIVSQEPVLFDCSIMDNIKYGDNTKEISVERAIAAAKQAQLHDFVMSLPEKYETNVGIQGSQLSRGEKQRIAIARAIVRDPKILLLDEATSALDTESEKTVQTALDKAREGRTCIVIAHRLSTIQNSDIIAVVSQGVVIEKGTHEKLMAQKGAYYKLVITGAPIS
Please respond with reported IC50 for every item in the list.

Some solved entries appear below for comparison.
[
  {
    "COMPOUND": "CN(C)CCN(Cc1cccs1)c1ccccn1",
    "EXPERIMENTAL_SYSTEM": "UniProt:O70127",
    "IC50": "> 1000 µM"
  },
  {
    "COMPOUND": "Nc1nc2c(ncn2COCCO)c(=O)[nH]1 [ACYCLOVIR]",
    "EXPERIMENTAL_SYSTEM": "UniProt:O70127",
    "IC50": "> 1000 µM"
  }
]

Kindly give each listed record's IC50.
1. C[C@](N)(Cc1ccc(O)c(O)c1)C(=O)O [METHYLDOPA]
2. CC1(C)S[C@@H]2[C@H](NC(=O)[C@H](N)c3ccc(O)cc3)C(=O)N2[C@H]1C(=O)O [AMOXICILLIN]

1: > 1000 µM; 2: > 1000 µM

---

Please respond with reported IC50 for every item in the list.
biological target: Bile salt export pump (Homo sapiens, UniProt O95342); test: Inhibition of human BSEP expressed in plasma membrane vesicles of Sf21 cells assessed as inhibition of ATP-dependent [3H]taurocholate uptake
Sequence (O95342 whole entry): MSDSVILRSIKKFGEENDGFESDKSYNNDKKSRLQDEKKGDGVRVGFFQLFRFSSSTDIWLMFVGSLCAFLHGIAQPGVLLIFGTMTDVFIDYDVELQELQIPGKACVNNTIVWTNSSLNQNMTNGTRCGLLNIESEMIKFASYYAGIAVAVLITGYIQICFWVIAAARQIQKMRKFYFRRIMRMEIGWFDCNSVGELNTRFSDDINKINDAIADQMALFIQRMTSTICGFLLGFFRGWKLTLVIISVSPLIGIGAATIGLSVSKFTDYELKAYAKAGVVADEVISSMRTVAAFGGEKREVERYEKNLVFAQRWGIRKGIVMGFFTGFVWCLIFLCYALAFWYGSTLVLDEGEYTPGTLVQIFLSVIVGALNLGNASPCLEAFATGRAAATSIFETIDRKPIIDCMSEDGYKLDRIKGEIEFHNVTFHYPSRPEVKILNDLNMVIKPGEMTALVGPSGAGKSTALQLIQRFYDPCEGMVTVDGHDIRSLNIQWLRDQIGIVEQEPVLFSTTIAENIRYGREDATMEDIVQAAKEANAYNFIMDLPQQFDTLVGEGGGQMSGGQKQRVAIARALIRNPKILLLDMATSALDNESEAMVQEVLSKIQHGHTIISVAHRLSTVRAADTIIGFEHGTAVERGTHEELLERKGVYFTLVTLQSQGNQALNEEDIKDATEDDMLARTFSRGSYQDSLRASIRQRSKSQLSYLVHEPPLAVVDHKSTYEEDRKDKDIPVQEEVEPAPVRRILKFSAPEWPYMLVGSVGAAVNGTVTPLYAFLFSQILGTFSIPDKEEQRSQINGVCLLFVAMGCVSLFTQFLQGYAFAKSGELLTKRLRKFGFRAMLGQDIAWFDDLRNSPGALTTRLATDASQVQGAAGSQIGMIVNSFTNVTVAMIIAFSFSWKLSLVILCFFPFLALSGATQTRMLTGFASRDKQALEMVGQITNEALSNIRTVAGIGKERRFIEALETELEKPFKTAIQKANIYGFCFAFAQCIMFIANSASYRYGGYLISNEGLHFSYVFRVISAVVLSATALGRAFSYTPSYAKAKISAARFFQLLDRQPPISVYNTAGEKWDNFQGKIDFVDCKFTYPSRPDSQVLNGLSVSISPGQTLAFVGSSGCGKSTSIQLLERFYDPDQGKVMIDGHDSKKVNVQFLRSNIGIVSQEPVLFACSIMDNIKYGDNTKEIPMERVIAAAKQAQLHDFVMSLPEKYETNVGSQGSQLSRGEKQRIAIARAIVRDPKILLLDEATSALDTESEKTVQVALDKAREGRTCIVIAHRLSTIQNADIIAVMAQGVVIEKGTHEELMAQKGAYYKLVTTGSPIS
Give bare numbers, in µM.

Some solved entries appear below for comparison.
[
  {
    "COMPOUND": "CO[C@H]1/C=C/O[C@@]2(C)Oc3c(C)c(O)c4c(O)c(cc(O)c4c3C2=O)NC(=O)/C(C)=C\\C=C\\[C@H](C)[C@H](O)[C@@H](C)[C@@H](O)[C@@H](C)[C@H](OC(C)=O)[C@@H]1C [RIFAMYCIN]",
    "EXPERIMENTAL_SYSTEM": "Bile salt export pump (Homo sapiens, UniProt O95342)",
    "READOUT_KIND": "IC50",
    "VALUE": 6.3
  },
  {
    "COMPOUND": "O=C(C1CCCCC1)N1CC(=O)N2CCc3ccccc3C2C1 (configuration not stated) [PRAZIQUANTEL]",
    "EXPERIMENTAL_SYSTEM": "Bile salt export pump (Homo sapiens, UniProt O95342)",
    "READOUT_KIND": "IC50",
    "VALUE": 96.8
  }
]

Kindly give each listed record's IC50.
1. Cc1oncc1C(=O)Nc1ccc(C(F)(F)F)cc1 [LEFLUNOMIDE]
2. CN1CCN(C2=Nc3cc(Cl)ccc3Nc3ccccc32)CC1 [CLOZAPINE]
3. CCCN(CCC)S(=O)(=O)c1ccc(C(=O)O)cc1 [PROBENECID]
4. Cc1onc(-c2ccccc2Cl)c1C(=O)N[C@@H]1C(=O)N2[C@@H]1SC(C)(C)[C@@H]2C(=O)O [CLOXACILLIN]

1. 177
2. 126
3. 565
4. 220

Looking for the measured IC50 of CCc1nn(CCCN2CCN(c3cccc(Cl)c3)CC2)c(=O)n1CCOc1ccccc1 [NEFAZODONE] , can you help?
4.2
